target: PDI (Homo sapiens, UniProt P07237); experiment: PDI activity assay (PDI-catalysed reduction of insulin); type: biochemical; design: made in house; conditions: GSTO1 versus PDI enzyme inhibition
Sequence (P07237 18-508, species assumed): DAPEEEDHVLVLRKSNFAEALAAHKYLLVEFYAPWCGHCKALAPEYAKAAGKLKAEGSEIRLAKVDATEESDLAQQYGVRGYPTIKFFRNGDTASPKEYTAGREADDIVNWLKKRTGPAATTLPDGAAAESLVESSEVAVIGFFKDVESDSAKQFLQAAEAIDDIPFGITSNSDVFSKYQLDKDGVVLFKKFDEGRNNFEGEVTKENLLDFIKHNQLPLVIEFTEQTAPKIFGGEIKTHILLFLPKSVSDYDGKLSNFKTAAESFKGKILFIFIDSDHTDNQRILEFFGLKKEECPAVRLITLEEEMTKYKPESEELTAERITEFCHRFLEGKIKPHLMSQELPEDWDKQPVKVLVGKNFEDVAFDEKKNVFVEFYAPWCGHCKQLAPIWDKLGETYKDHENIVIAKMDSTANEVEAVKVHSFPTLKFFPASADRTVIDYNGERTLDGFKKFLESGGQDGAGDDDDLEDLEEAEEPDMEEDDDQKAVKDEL
Reported property: Fold selectivity

INSERT INTO assay_data (structure_as_smiles, reported) VALUES
  ('O=C(CCl)Nc1ncc(Cc2ccccc2Cl)s1', 0.7),
  ('O=C(CCl)Nc1cc(S(=O)(=O)N(C(=O)CCl)c2cccc(Cl)c2)ccc1Cl', 48.7),
  ('O=C(CCl)Nc1ccc(S(=O)(=O)C(F)F)cc1', 24.1),
  ('CCOC(=O)c1c(NC(=O)CCl)sc2c1CCCCC2', 61.1),
  ('COc1ccc(S(=O)(=O)N2CCCCCC2)cc1NC(=O)CCl', 16.3),
  ('O=C(CCl)Nc1cc(F)c(F)cc1NC(=O)CCl', 1.9),
  ('O=C(CCl)Nc1nc(-c2cccc([N+](=O)[O-])c2)cs1', 2.9),
  ('CN(c1ccccc1)S(=O)(=O)c1cccc(NC(=O)CCl)c1', 19.5);

* * *

molecular target: GSTO1 (Homo sapiens); test: GSTO1 substrate assay (reduction of 4-NPG); details: 10 µM
Documented GSTO substrate assay % Inhibition at 10 µM across a set of compounds
Reported property: GSTO substrate assay % Inhibition at 10 µM (%)

INSERT INTO measurements (compound, value_units, reported) VALUES
  ('CCOC(=O)c1c(NC(=O)CCl)sc2c1CCCCC2 [C2-16]', '%', 73.0),
  ('O=C(CCl)N(NC(=O)P(=O)(N1CCOCC1)N1CCOCC1)c1ccc(Br)cc1 [C4-20]', '%', -7.3),
  ('Cc1c(NC(=O)c2c(NC(=O)CCl)sc3c2CCCC3)c(=O)n(-c2ccccc2)n1C [C2-19]', '%', 1.2),
  ('O=C(CCl)N1CCN(Cc2ccccc2F)CC1 [C5-7]', '%', 72.8),
  ('CCN1CCC(NC(=O)CCl)CC1 [C2-1]', '%', 54.8),
  ('CCOC(=O)c1c(-c2ccccc2)csc1NC(=S)NC(=O)CCl [C3-26]', '%', 69.5),
  ('CN(CCOc1ccc(Cl)cc1)C(=O)CCl [C4-9]', '%', 20.7),
  ('Cc1sc2ncn(NC(=O)CCl)c(=O)c2c1C [C2-30]', '%', 47.4),
  ('O=C(CCl)Nc1ccc(Oc2ccc(Br)cc2)cc1 [C1-7]', '%', 77.7),
  ('O=C(CCl)Nc1ccc(Cl)cc1[N+](=O)[O-] [C1-2]', '%', 100.9),
  ('Cc1nn(Cc2ccccc2)c(C)c1CNC(=O)CCl [C3-30]', '%', 83.1),
  ('O=C(CCl)NNC(=O)c1cc2c(s1)CCCC2 [C3-23]', '%', -3.5),
  ('O=C(CCl)Nc1cc(C2CC2)nn1-c1ccccc1 [C2-5]', '%', 4.4),
  ('CCOc1ccc(NC(=O)NC(=O)CCl)cc1OCC [C3-19]', '%', 99.5),
  ('CCN1CCN(c2ccc(NC(=O)CCl)cc2)CC1 [C1-20]', '%', 66.9),
  ('CN(CC(=O)N1CCOCC1)C(=O)CCl [C4-12]', '%', 81.7),
  ('O=C(CCl)N1CCc2cc([N+](=O)[O-])ccc21 [C5-19]', '%', 40.0),
  ('CC(C)C(C#N)N1CCN(C(=O)CCl)CC1 (centres unmarked) [C5-2]', '%', 58.2),
  ('O=C(CCl)Nc1ccc(S(=O)(=O)C(F)F)cc1 [C1-24]', '%', 77),
  ('O=C(CCl)Nc1sc2c(c1C(=O)c1ccccc1)CCCC2 [C2-20]', '%', 91.1),
  ('CC1Cc2cc(S(N)(=O)=O)ccc2N1C(=O)CCl (centres unmarked) [C5-20]', '%', 61.0),
  ('O=C(CCl)Nc1cc(C(F)(F)F)ccc1N1CCCC1 [C1-17]', '%', 88.5),
  ('N#CC(c1cccs1)N1CCN(C(=O)CCl)CC1 (centres unmarked) [C5-11]', '%', 5.7);

* * *

System: HT29
Assay: MTT cytotoxicity GI50, HT29
Type: cell-based
Description: Cell proliferation was assessed by a MTT assay. Cancer cells were seeded in 96-well microtitre plates and, after overnight attachment, treated with GSTO1 inhibitors. […] The absorbance intensity was measured at 570 nm on a microplate reader (Molecular Devices, Sunnyvale, CA, USA). Cell viability after 24 h treatment was assessed using ApoTox-Glo triplex assay (Promega) according to the manufacturer's protocol. […]
Reported property: GI50 (µM)

INSERT INTO results (compound, value_units, reported) VALUES
  ('CCOC(=O)c1c(NC(=O)CCl)sc2c1CCCCC2', 'µM', 19.8),
  ('COc1ccc(S(=O)(=O)N2CCCCCC2)cc1NC(=O)CCl', 'µM', 8.7),
  ('COC(=O)c1c(-c2ccccc2Cl)csc1NC(=O)CCl', 'µM', 18.1),
  ('O=C(CCl)Nc1cc(S(=O)(=O)N(C(=O)CCl)c2cccc(Cl)c2)ccc1Cl', 'µM', 15.5),
  ('O=C(CCl)Nc1ccc(S(=O)(=O)C(F)F)cc1', 'µM', 5.1),
  ('O=C(CCl)Nc1nc(-c2cccc([N+](=O)[O-])c2)cs1', 'µM', 10.9),
  ('O=C(CCl)Nc1ncc(Cc2ccccc2Cl)s1', 'µM', 14.2),
  ('CN(c1ccccc1)S(=O)(=O)c1cccc(NC(=O)CCl)c1', 'µM', 2.7),
  ('CC1CCc2c(sc(NC(=O)CCl)c2C(N)=O)C1 (stereo not shown)', 'µM', 9.5),
  ('COc1cc(/C=C/C(=O)N2CCC=CC2=O)cc(OC)c1OC', 'µM', 5.1);

* * *

target: endogenous GSTO1 (Homo sapiens); test: In-gel fluorescence competitive CMFDA binding assay, endogenous GSTO1 in HCT116; details: 10 µM; inhibition of CMFDA binding, HCT116
Sequence (P78417 whole entry): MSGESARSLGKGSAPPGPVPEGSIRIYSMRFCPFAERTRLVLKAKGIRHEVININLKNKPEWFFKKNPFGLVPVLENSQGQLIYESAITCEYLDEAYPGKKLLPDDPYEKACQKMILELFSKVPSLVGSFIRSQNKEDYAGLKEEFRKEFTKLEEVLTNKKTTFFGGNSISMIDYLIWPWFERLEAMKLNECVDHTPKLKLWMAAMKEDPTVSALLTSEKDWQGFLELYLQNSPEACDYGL
The threshold is inclusive: GSTO binding assay (% Inhibition at 10 µM) Endogenous of exactly 50% counts as condition met; values below receive condition not met.

INSERT INTO measurements (molecule, group_label) VALUES
  ('C=CCSc1ccccc1NC(=O)CCl', 'condition not met'),
  ('N#Cc1ccccc1S(=O)(=O)N1CCN(C(=O)CCl)CC1', 'condition met'),
  ('NC(=O)CCN(Cc1ccccc1)C(=O)CCl', 'condition met'),
  ('O=C(CCl)Nc1ccccc1C(=O)NCc1ccco1', 'condition met'),
  ('CCOc1ccc(NC(=O)NC(=O)CCl)cc1OCC', 'condition met'),
  ('CC1CCN(c2ccc(NC(=O)CCl)cc2)CC1', 'condition met'),
  ('O=C(CCl)Nc1nc2cc3c(cc2s1)OCCO3', 'condition met'),
  ('CCN(CC)c1ccc(S(=O)(=O)N2CCOCC2)cc1NC(=O)CCl', 'condition not met'),
  ('O=C(CCl)N1CCN(S(=O)(=O)c2ccc(F)c(F)c2)CC1', 'condition met'),
  ('O=C(CCl)N(Cc1ccccc1)Cc1ccco1', 'condition not met'),
  ('O=C(CCl)Nc1cc(C2CC2)nn1-c1ccccc1', 'condition met'),
  ('Cc1c(-c2ccccc2)sc(NC(=O)CCl)c1C(=O)N1CCOCC1', 'condition met'),
  ('O=C(CCl)NCCN1C(=O)SC(=Cc2ccccc2F)C1=O', 'condition met'),
  ('COC(=O)c1c(-c2ccccc2Cl)csc1NC(=O)CCl', 'condition met'),
  ('O=C(CCl)N1CCN(c2ccccc2F)CC1', 'condition met'),
  ('CCOC(=O)c1cc(C(C)C)sc1NC(=O)CCl', 'condition met'),
  ('O=C(CCl)Nc1cc(S(=O)(=O)N(C(=O)CCl)c2cccc(Cl)c2)ccc1Cl', 'condition met'),
  ('CCOC(=O)c1c(-c2ccccc2)csc1NC(=S)NC(=O)CCl', 'condition not met'),
  ('CC(NC(=O)CCl)c1ccc2c(c1)OCO2 (stereo not shown)', 'condition not met'),
  ('Cc1cc(C)c(NC(=O)CNC(=O)CCl)c(C)c1', 'condition met'),
  ('O=C(CCl)NCc1cc([N+](=O)[O-])ccc1O', 'condition met'),
  ('O=C(CCl)Nc1ccc(S(=O)(=O)C(F)F)cc1', 'condition met'),
  ('O=C(CCl)Nc1ccc(Cl)cc1[N+](=O)[O-]', 'condition met'),
  ('CCOc1ccc(/C=C/C2=Cc3c(sc(NC(=O)CCl)c3C#N)C(C)(C)C2)cc1', 'condition met'),
  ('CCOC(=O)c1c(NC(=O)CCl)sc2c1CCCCC2', 'condition met'),
  ('N#CC(c1cccs1)N1CCN(C(=O)CCl)CC1 (stereo not shown)', 'condition met'),
  ('CN(CCOc1ccc(Cl)cc1)C(=O)CCl', 'condition not met'),
  ('O=C(CCl)N(NC(=O)P(=O)(N1CCOCC1)N1CCOCC1)c1ccc(Br)cc1', 'condition not met'),
  ('O=C(CCl)Nc1cc2c(cc1Cl)C(=O)c1ccccc1C2=O', 'condition not met'),
  ('COc1cc(CCNC(=O)CCl)ccc1OC(F)F', 'condition not met'),
  ('COc1cc(C(=O)NNC(=O)CCl)cc(OC)c1OC', 'condition not met'),
  ('O=C(CCl)NCCC12CC3CC(CC(C3)C1)C2', 'condition not met'),
  ('O=C(CCl)N1CCN(S(=O)(=O)C=Cc2ccccc2)CC1', 'condition met'),
  ('CN(CC1COc2ccccc2O1)C(=O)CCl (stereo not shown)', 'condition met'),
  ('O=C(CCl)Nc1cc2c(cc1Cl)OCCCO2', 'condition met'),
  ('O=C(CCl)Nc1ccc(Oc2ccc(Br)cc2)cc1', 'condition met'),
  ('CN(C)c1ccc(Cl)cc1NC(=O)CCl', 'condition not met'),
  ('CCOC(=O)c1sc(-c2ccccc2)cc1NC(=O)CCl', 'condition not met'),
  ('CC(C)C(C#N)N1CCN(C(=O)CCl)CC1 (stereo not shown)', 'condition met'),
  ('O=C(CCl)NCC(=O)Nc1ccc(F)c(F)c1', 'condition met'),
  ('O=C(CCl)NCC1(N2CCCCC2)CCCCC1', 'condition not met');
